The reported numbers originate from PubChem BioAssay (EPA / NIEHS).

# Assay comment: CCTE_Shafer_MEA_dev_burst_duration_mean: CCTE's Neural Network Formation Assay for Mean Burst Duration, Shafer Lab (AID 2284045)
Calls of active or inactive are those of the source. The calls were made as follows: active = hit-call score of the fitted dose curve at least 0.9, where 1 is the maximum; inactive = score below 0.9.
Quantity: outcome

- Compound smiles: "O=S(=O)(c1ccc(O)cc1)c1ccc(O)cc1"
  Result: "inactive"
- Compound smiles: "O=C(O)C(F)(F)C(F)(F)C(=O)O"
  Result: "inactive"
- Compound smiles: "OCC(F)(F)OC(F)(F)C(F)(F)OC(F)(F)C(F)(F)OC(F)(F)CO"
  Result: "inactive"

---

# Read-out: Vascular endothelial growth factor receptor 2 (Homo sapiens) (UniProt P35968)
# Assay comment: BSK_4H_VEGFRII: BioMAP Diversity Plus: 4H Assay for Vascular endothelial growth factor receptor 2 (VEGFR2) Biomarker Activity (AID 2283031)
# Condition summary: primary human endothelial cells (HUVEC); actives raise or lower the signal
# Experimental: BSK_4H is a cell-based, multiplexed-readout assay that uses umbilical vein endothelium, a human vascular primary cell, with measurements taken at 24 hours after chemical dosing in a 96-well plate.BSK_4H_VEGFRII is an assay component measured in the BSK_4H assay. It measures VEGFRII antibody related to regulation of gene expression using ELISA technology.Data from the assay component BSK_4H_VEGFRII was analyzed into 1 assay endpoint. […]
Active and inactive are the calls of the source. The calls were made as follows: active = hit-call score of the fitted dose curve at least 0.9, where 1 is the maximum; inactive = score below 0.9.
Response enum: true = active, false = inactive

Answered cases to consult:
- Molecule: "CCNc1nc(Cl)nc(NC(C)(C)C)n1"
  Class label: "false"
- Molecule: "O=S1(=O)OCC2C(CO1)C1(Cl)C(Cl)=C(Cl)C2(Cl)C1(Cl)Cl (configuration not stated)"
  Class label: "false"
- Molecule: "Cc1ccc([N+](=O)[O-])cc1C"
  Class label: "false"
- Molecule: "CCOP(=S)(OCC)SCSCC"
  Class label: "false"

Outcome? "C=CC(=O)OCC(CC)(COC(=O)C=C)COC(=O)C=C"
true

Outcome? "CCOP(=S)(S)OCC"
false

Outcome? "O=C(O)C(F)(F)OC(F)(F)C(F)(F)OC(F)(F)C(=O)O"
false
